Measured switch fluorescence ratio accompanies every entry in the list below.
System: ATP;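 further: ATP exposure 15 min at 22 °C before imaging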
assay: switch fluorescence ratio, 500 uM ATP over buffer (Cy3 cluster intensity, sum of 5 cycles each) (fold (ratio)); higher = stronger signal-on switching upon ATP binding; sequences stand for … in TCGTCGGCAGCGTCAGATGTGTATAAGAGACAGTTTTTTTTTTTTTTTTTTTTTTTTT…TC
settings: aptamer strand: ATP DNA aptamer (quencher-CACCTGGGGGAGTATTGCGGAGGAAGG + anchor), 100 nM annealed; ATP concentration: 500 uM

Here's what some known entries look like.
{"sequence.content": "AAGCGTTGTA", "switch fluorescence ratio": 1.01}
{"sequence.content": "GTGGCCATGC", "switch fluorescence ratio": 1.01}

Now take the following sequence into account.
switch fluorescence ratio measured on "TAAACGCTGG" = 0.999

----------
Test system: ATP;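 further: ATP exposure 15 min at 22 °C before imaging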
assay: switch fluorescence ratio, 500 uM ATP over buffer (Cy3 cluster intensity, sum of 5 cycles each) (fold (ratio)); higher = stronger signal-on switching upon ATP binding; sequences stand for … in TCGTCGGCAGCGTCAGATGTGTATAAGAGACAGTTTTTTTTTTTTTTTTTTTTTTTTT…TC
settings: aptamer strand: ATP DNA aptamer (quencher-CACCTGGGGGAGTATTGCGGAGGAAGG + anchor), 100 nM annealed; ATP concentration: 500 uM
measure: switch fluorescence ratio
Response field accepts a number only; no unit should be typed.

Here's what some known entries look like.
{"sequence.content": "AGGTAGGTGT", "measure": "switch fluorescence ratio", "reported.result": 1.04}
{"sequence.content": "CAGAGGAACT", "measure": "switch fluorescence ratio", "reported.result": 0.999}
{"sequence.content": "GGAGGGGAGT", "measure": "switch fluorescence ratio", "reported.result": 0.999}
{"sequence.content": "ATGGGGAATT", "measure": "switch fluorescence ratio", "reported.result": 0.995}
{"sequence.content": "ATCTTCTTAG", "measure": "switch fluorescence ratio", "reported.result": 0.977}
{"sequence.content": "TAGTTTCTAC", "measure": "switch fluorescence ratio", "reported.result": 0.992}
{"sequence.content": "AAATAATGAT", "measure": "switch fluorescence ratio", "reported.result": 1}
{"sequence.content": "CGATTTTTAG", "measure": "switch fluorescence ratio", "reported.result": 0.98}
{"sequence.content": "GAGTTAGGGC", "measure": "switch fluorescence ratio", "reported.result": 0.99}
{"sequence.content": "AATGAGGTCG", "measure": "switch fluorescence ratio", "reported.result": 1}

switch fluorescence ratio measured on "TTAGGGGCTT" = 1.02

switch fluorescence ratio measured on "TCGCAAAGGT" = 1.34

switch fluorescence ratio measured on "TTTTAGTTGG" = 0.954

switch fluorescence ratio measured on "AGTAAGCGGC" = 1

switch fluorescence ratio measured on "AAGCCGCTCG" = 1

switch fluorescence ratio measured on "TTTTCAACAC" = 1.04

----------
Measured switch fluorescence ratio accompanies every entry in the list below.
System: ATP;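 further: ATP exposure 15 min at 22 °C before imaging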
assay: switch fluorescence ratio, 500 uM ATP over buffer (Cy3 cluster intensity, sum of 5 cycles each) (fold (ratio)); higher = stronger signal-on switching upon ATP binding; sequences stand for … in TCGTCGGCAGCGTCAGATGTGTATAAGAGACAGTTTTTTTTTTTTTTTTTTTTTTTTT…TC
settings: aptamer strand: ATP DNA aptamer (quencher-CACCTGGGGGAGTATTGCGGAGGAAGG + anchor), 100 nM annealed; ATP concentration: 500 uM

Here's what some known entries look like.
{"sequence.content": "TGTTTGGTC", "measured.on": "ATP", "switch fluorescence ratio": 0.997}
{"sequence.content": "GGCGTTGTCC", "measured.on": "ATP", "switch fluorescence ratio": 1.02}
{"sequence.content": "AGTGTATCCC", "measured.on": "ATP", "switch fluorescence ratio": 1.01}
{"sequence.content": "TGAAGGGGGT", "measured.on": "ATP", "switch fluorescence ratio": 0.999}
{"sequence.content": "AGGTTGGGGG", "measured.on": "ATP", "switch fluorescence ratio": 0.981}
{"sequence.content": "TCTTGGTTTC", "measured.on": "ATP", "switch fluorescence ratio": 0.997}

switch fluorescence ratio measured on "GGTCAGTGTC" = 0.981

switch fluorescence ratio measured on "TAAAGTTTAG" = 1.02

switch fluorescence ratio measured on "ATCGGGGCAT" = 0.98

switch fluorescence ratio measured on "CCGCGGCGGG" = 1.04

switch fluorescence ratio measured on "TTAGAAGATT" = 1

switch fluorescence ratio measured on "GATAATTGTC" = 0.951

switch fluorescence ratio measured on "CCAGAGGTTG" = 0.999

switch fluorescence ratio measured on "TGAACTGTTC" = 1.04

switch fluorescence ratio measured on "CGCATATGGC" = 2.46

switch fluorescence ratio measured on "GAGTGCATGG" = 1

switch fluorescence ratio measured on "TTAAAATTTT" = 1.06
